// provenance: patent US5827655A

Target: MK3 K+ channels (Mus musculus)
Construct: The MK3 coding region was inserted into the pSP64T cloning vector
Experiment: cell-based
Settings: FIG. 3C; outside-out patch, oocyte injected with MK3 mRNA; read-out: Kd, dose-response curve of drugs blocking MK3 K+ current
pKd: −log10 of the molar value.
Measured property: pKd

molecule="CC[N+](CC)(CC)CC [TEA, tetraethylammonium]" recorded_measurement=1.96

----------
Target: MK3 K+ channels (Mus musculus, UniProt P16390)
Construct: The MK3 coding region was inserted into the pSP64T cloning vector
Sequence (P16390 whole entry): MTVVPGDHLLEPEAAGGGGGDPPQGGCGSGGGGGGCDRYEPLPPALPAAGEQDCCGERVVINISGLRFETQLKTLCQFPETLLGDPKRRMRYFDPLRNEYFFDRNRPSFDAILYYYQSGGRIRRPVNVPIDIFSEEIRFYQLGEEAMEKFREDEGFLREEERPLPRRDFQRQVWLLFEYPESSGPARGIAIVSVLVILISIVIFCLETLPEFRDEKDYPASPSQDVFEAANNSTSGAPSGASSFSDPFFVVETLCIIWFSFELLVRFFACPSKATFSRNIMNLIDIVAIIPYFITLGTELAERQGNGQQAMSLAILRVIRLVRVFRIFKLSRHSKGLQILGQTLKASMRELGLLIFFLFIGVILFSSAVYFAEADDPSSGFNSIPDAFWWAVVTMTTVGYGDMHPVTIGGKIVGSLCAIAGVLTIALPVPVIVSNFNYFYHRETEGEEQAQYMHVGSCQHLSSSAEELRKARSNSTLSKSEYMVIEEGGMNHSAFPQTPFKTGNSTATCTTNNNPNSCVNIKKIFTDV
Experiment: cell-based
Settings: Table I, MK3 currents in oocytes; read-out: Blockers, half-blocking dose
Measured property: IC50 (mM)

compound="CC[N+](CC)(CC)CC [TEA, tetraethylammonium]" measured_property=IC50 recorded_measurement=11
